Each entry below lists one item and its recorded CC50 at 20 h value.
PROTOCOL: Cytotoxicity against mouse J774.A1 cells assessed as reduction in viability incubated for 20 hrs by MTT assay
Format: toxicity, cell-based
PROPERTY MEASURED: CC50 at 20 h

* Fc1ccc2[nH]cc(C(c3ccc(Cl)cc3)c3c[nH]c4ccc(F)cc34)c2c1 | 4.51 µM
* Fc1ccc(C(c2c[nH]c3ccccc23)c2c[nH]c3ccccc23)cc1 | 5.71 µM
* OC[C@H]1O[C@@H](n2cc(C(c3ccc(F)cc3)c3cn([C@@H]4O[C@H](CO)[C@@H](O)[C@@H](O)[C@H]4O)c4ccc(Br)cc34)c3cc(Br)ccc32)[C@H](O)[C@H](O)[C@@H]1O (some centres undefined) | 89.2 µM
* Fc1ccc(C(c2c[nH]c3ccc(Br)cc23)c2c[nH]c3ccc(Br)cc23)cc1 | 4.45 µM
